# Assayed target: Proteinase-activated receptor 2 (Homo sapiens) (UniProt P55085)
# Sequence (P55085 whole entry): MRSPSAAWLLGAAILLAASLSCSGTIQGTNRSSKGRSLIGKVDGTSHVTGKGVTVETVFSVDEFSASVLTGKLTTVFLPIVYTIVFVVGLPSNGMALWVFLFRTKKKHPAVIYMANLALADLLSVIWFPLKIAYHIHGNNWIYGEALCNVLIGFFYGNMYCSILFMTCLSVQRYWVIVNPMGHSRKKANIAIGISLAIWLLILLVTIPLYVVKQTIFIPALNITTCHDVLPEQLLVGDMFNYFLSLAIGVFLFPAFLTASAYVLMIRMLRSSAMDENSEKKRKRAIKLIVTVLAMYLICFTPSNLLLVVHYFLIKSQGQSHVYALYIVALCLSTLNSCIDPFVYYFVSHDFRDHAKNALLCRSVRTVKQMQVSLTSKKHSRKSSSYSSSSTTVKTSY
# Method notes: Agonist activity at PAR2 in human 16HBE14o cells assessed as activated cells at 100 uM by intracellular calcium mobilization fura-2-AM assay
# Type: functional, cell-based
Activity calls are given as the source filed them. No cut-off for these calls is given here.
Attribute measured: Activity

The examples below pair each entry with its known result.
• CC[C@H](C)[C@H](NC(=O)[C@H](CC(C)C)NC(=O)c1ccc(S(N)(=O)=O)cc1)C(=O)NCC(=O)N[C@@H](CCCNC(=N)N)C(=O)N[C@@H](CC(C)C)C(N)=O = Active
• CC[C@H](C)[C@H](NC(=O)[C@H](CC(C)C)NC(=O)c1cnccn1)C(=O)NCC(=O)N[C@@H](CCCNC(=N)N)C(=O)N[C@@H](CC(C)C)C(N)=O = Active
• CC[C@H](C)[C@H](NC(=O)[C@H](CC(C)C)NC(=O)c1nc(N)n[nH]1)C(=O)NCC(=O)N[C@@H](CCCNC(=N)N)C(=O)N[C@@H](CC(C)C)C(N)=O = Active
• CC[C@H](C)[C@H](NC(=O)[C@H](CC(C)C)NC(=O)CCN1CCCCC1)C(=O)NCC(=O)N[C@@H](CCCNC(=N)N)C(=O)N[C@@H](CC(C)C)C(N)=O = 0%
• CC[C@H](C)[C@H](NC(=O)[C@H](CC(C)C)NC(=O)c1cccnc1N)C(=O)NCC(=O)N[C@@H](CCCNC(=N)N)C(=O)N[C@@H](CC(C)C)C(N)=O = Active

Form field Activity, entry CC[C@H](C)[C@H](NC(=O)[C@H](CC(C)C)NC(=O)Cc1c[nH]c2ccccc12)C(=O)NCC(=O)N[C@@H](CCCNC(=N)N)C(=O)N[C@@H](CC(C)C)C(N)=O : 0%

Activity reading for CC[C@H](C)[C@H](NC(=O)[C@H](CC(C)C)NC(=O)COCC(=O)O)C(=O)NCC(=O)N[C@@H](CCCNC(=N)N)C(=O)N[C@@H](CC(C)C)C(N)=O : 0%

Lookup result for CC[C@H](C)[C@H](NC(=O)[C@H](CC(C)C)NC(=O)c1ccnc(N)c1)C(=O)NCC(=O)N[C@@H](CCCNC(=N)N)C(=O)N[C@@H](CC(C)C)C(N)=O ; measured Activity: Active

// Activity lookup, compound = CC[C@H](C)[C@H](NC(=O)[C@H](CC(C)C)NC(=O)CC#N)C(=O)NCC(=O)N[C@@H](CCCNC(=N)N)C(=O)N[C@@H](CC(C)C)C(N)=O , result: Active

Note to self: Activity recorded for CC[C@H](C)[C@H](NC(=O)[C@H](CC(C)C)NC(=O)c1cccnc1O)C(=O)NCC(=O)N[C@@H](CCCNC(=N)N)C(=O)N[C@@H](CC(C)C)C(N)=O was 0%

Record summary for CC[C@H](C)[C@H](NC(=O)[C@H](CC(C)C)NC(=O)c1cccc2[nH]ccc12)C(=O)NCC(=O)N[C@@H](CCCNC(=N)N)C(=O)N[C@@H](CC(C)C)C(N)=O : reported Activity = 0%
